Source listed as patent US10710979B2.

Test system: human melanoma cell A375
Assay: Effect of compounds on proliferation of tumor cells (MTT), A375
Assay type: cell-based
Conditions: A-375, 72 hours
reported.endpoint: IC50 (µM)

Sample "C=CC(=O)Nc1cccc(Nc2nc(Nc3ccc(N4CCN(C(=O)CC)CC4)nc3OC)ncc2C(F)(F)F)c1" ; IC50 observed: 3.58

Sample C=CC(=O)Nc1cccc(Nc2nc(Nc3ccc(N4CCN(C(C)=O)CC4)cc3OC)ncc2C(F)(F)F)c1 [Compound 1686, reference compound] ; IC50 observed: 3

1 = C=CC(=O)Nc1cccc(Nc2nc(Nc3ccc(N4CCN(C(=O)OCC)CC4)nc3OC)ncc2C(F)(F)F)c1
2 = C=CC(=O)Nc1cccc(Nc2nc(Nc3ccc(N4CCN(S(=O)(=O)C5CC5)CC4)nc3OC)ncc2C(F)(F)F)c1
3 = C=CC(=O)Nc1cccc(Nc2nc(Nc3ccc(N4CCN(C(C)=O)CC4)nc3)ncc2C(F)(F)F)c1
4 = C=CC(=O)Nc1cccc(Nc2nc(Nc3cnc(N4CCN(C(=O)N(C)C)CC4)nc3OC)ncc2C(F)(F)F)c1
5 = C=CC(=O)Nc1cccc(Nc2nc(Nc3cnc(N4CCN(C(=O)OC(C)(C)C)CC4)nc3OC)ncc2C(F)(F)F)c1
## Task Hi! Can you put these in order of IC50, lowest number first? Please list each label once, in the requested order.
## Result 1, 2, 3, 4, 5
(1: 1.04 µM, 2: 3.36 µM, 3: 5.46 µM, 4: 18.2 µM, 5: 49.9 µM)

###

Test system: human lung cancer cells H1975
Experiment: Effect of compounds on proliferation of tumor cells (MTT), H1975
Type: cell-based
Conditions: Homo sapiens, NCI-H1975; H1975 cells, 72 hours, MTT
reported.endpoint: IC50 (nM)

Sample C=CC(=O)Nc1cccc(Nc2nc(Nc3ccc(N4CCN(S(=O)(=O)C5CC5)CC4)nc3OC)ncc2C(F)(F)F)c1 [ES-134] ; IC50 observed: 69.1

P = C=CC(=O)Nc1cccc(Nc2nc(Nc3ccc(N4CCN(S(C)(=O)=O)CC4)nc3OC)ncc2C(F)(F)F)c1 [ES-142]
Q = C=CC(=O)Nc1cccc(Nc2nc(Nc3cnc(N4CCN(C(=O)C5COC5)CC4)nc3OC)ncc2C(F)(F)F)c1 [ES-163]
R = C=CC(=O)Nc1cccc(Nc2nc(Nc3ccc(N4CCN(C(=O)CC)CC4)nc3OC)ncc2C(F)(F)F)c1 [ES-137]
## Task Hi! Can you put these in order of IC50, lowest number first? Please list each label once, in the requested order.
## Result R, P, Q
(R: 21.1 nM, P: 80 nM, Q: 168 nM)

###

Test system: human melanoma cell A375
Assay: Effect of compounds on proliferation of tumor cells (MTT), A375
Type: cell-based
Settings: A-375, 72 hours
reported.endpoint: IC50 (nM)

Here is how some compounds turned out for IC50.
Sample "C=CC(=O)Nc1cccc(Nc2nc(Nc3ccc(N4CCN(C)CC4)nc3OC)ncc2C(F)(F)F)c1" ; IC50 observed: 2400

Sample "C=CC(=O)Nc1cccc(Nc2nc(Nc3cnc(N4CCN(C)CC4)cc3OC)ncc2C(F)(F)F)c1" ; IC50 observed: 2740

Sample "C=CC(=O)Nc1cccc(Nc2nc(Nc3ccc(N4CCN(S(=O)(=O)CCC)CC4)nc3OC)ncc2C(F)(F)F)c1" ; IC50 observed: 1510

Sample "C=CC(=O)Nc1cccc(Nc2nc(Nc3ccc(N4CCN(C(=O)CC(C)(C)C)CC4)nc3OC)ncc2C(F)(F)F)c1" ; IC50 observed: 3790

Sample "C=CC(=O)Nc1cccc(Nc2nc(Nc3ccc(N4CCN(C(=O)C(C)C)CC4)nc3OC)ncc2C(F)(F)F)c1" ; IC50 observed: 4500

P = C=CC(=O)Nc1cccc(Nc2nc(Nc3ccc(N4CCN(C(=O)C(C)(C)C)CC4)nc3OC)ncc2C(F)(F)F)c1
Q = C=CC(=O)Nc1cccc(Nc2nc(Nc3ccc(N4CCN(C(=O)C(F)(F)F)CC4)nc3OC)ncc2C(F)(F)F)c1
## Task When P and Q are compared, which has the higher number for IC50? Write the label of whichever entry you select.
## Result P

###

Test system: human melanoma cell A375
Experiment: Effect of compounds on proliferation of tumor cells (MTT), A375
Assay type: cell-based
Conditions: A-375, 72 hours
Description: Human lung cancer cells H1975, H522, human hepatoma cell HepG2, human melanoma cell A375, human epidermal cancer cell A431, and human colon cancer cells COLO205 were cultivated. […] 150 μl of DMSO was added to each well and shaken at 37° C. for 5 mins, and absorbance (OD) was determined at 492 nm. […]
pIC50: −log10 of the molar value.
reported.endpoint: pIC50

Here is how some molecules turned out for pIC50.
Sample C=CC(=O)Nc1cccc(Nc2nc(Nc3ccc(N4CCN(C(=O)N(C)C)CC4)nc3)ncc2C(F)(F)F)c1 [ES-158] ; pIC50 observed: 5.42

Sample C=CC(=O)Nc1cccc(Nc2nc(Nc3ccc(N(C)C4CCN(C(=O)C5COC5)C4)nc3OC)ncc2C(F)(F)F)c1 (stereo not shown) [ES-149] ; pIC50 observed: 5.17

Sample C=CC(=O)Nc1cccc(Nc2nc(Nc3ccc(N4CCN(C(=O)N(C)C)CC4)nc3OC)ncc2C(F)(F)F)c1 [ES-131] ; pIC50 observed: 5.39

Sample C=CC(=O)Nc1cccc(Nc2nc(Nc3ccc(N(C)C4CCN(C(=O)N(C)C)C4)nc3OC)ncc2C(F)(F)F)c1 (stereo not shown) [ES-151] ; pIC50 observed: 5.35

A = C=CC(=O)Nc1cccc(Nc2nc(Nc3ccc(N(C)C4CCN(C)C4)nc3OC)ncc2C(F)(F)F)c1 (stereo not shown) [ES-150]
B = C=CC(=O)Nc1cccc(Nc2nc(Nc3ccc(NC4CCN(C(=O)C5COC5)C4)nc3OC)ncc2C(F)(F)F)c1 (stereo not shown) [ES-125]
## Task Given A and given B , which shows the smaller recorded pIC50? Write the label of whichever entry you select.
## Result B

###

Tested on: human lung cancer cells H1975
Assay: Effect of compounds on proliferation of tumor cells (MTT), H1975
Type: cell-based
Conditions: Homo sapiens, NCI-H1975; H1975 cells, 72 hours, MTT
pIC50: −log10 of the molar value.
reported.endpoint: pIC50

Here is how some molecules turned out for pIC50.
Sample C=CC(=O)Nc1cccc(Nc2nc(Nc3ccc(N4CCN(C(=O)N(C)C)CC4)nc3OC)ncc2C(F)(F)F)c1 [ES-131] ; pIC50 observed: 7.24

Sample C=CC(=O)Nc1cccc(Nc2nc(Nc3ccc(N4CCN(S(=O)(=O)NC)CC4)nc3OC)ncc2C(F)(F)F)c1 [ES-133] ; pIC50 observed: 6.37

Sample C=CC(=O)Nc1cccc(Nc2nc(Nc3ccc(N4CCN(S(=O)(=O)CC)CC4)nc3OC)ncc2C(F)(F)F)c1 [ES-143] ; pIC50 observed: 6.32

Sample C=CC(=O)Nc1cccc(Nc2nc(Nc3cnc(N4CCN(C(C)=O)CC4)nc3OC)ncc2C(F)(F)F)c1 [ES-160] ; pIC50 observed: 6.16

Sample C=CC(=O)Nc1cccc(Nc2nc(Nc3ccc(N4CCN(C)CC4)nc3OC)ncc2C(F)(F)F)c1 [ES-072] ; pIC50 observed: 7.47

Sample C=CC(=O)Nc1cccc(Nc2nc(Nc3ccc(NC4CCN(C(C)=O)C4)nc3OC)ncc2C(F)(F)F)c1 (centres unmarked) [ES-123] ; pIC50 observed: 6.82

Sample C=CC(=O)Nc1cccc(Nc2nc(Nc3ccc(N4CCN(S(=O)(=O)N(C)C)CC4)nc3OC)ncc2C(F)(F)F)c1 [ES-132] ; pIC50 observed: 6.64

Sample C=CC(=O)Nc1cccc(Nc2nc(Nc3cnc(N4CCN(C(=O)OC(C)(C)C)CC4)cc3OC)ncc2C(F)(F)F)c1 [ES-073] ; pIC50 observed: 6.67

Sample C=CC(=O)Nc1cccc(Nc2nc(Nc3ccc(N4CCN(C(C)=O)CC4)nc3OC)ncc2C(F)(F)F)c1 [ES-071] ; pIC50 observed: 7.64

Sample C=CC(=O)Nc1cccc(Nc2nc(Nc3ccc(N4CCN(C(=O)OCC)CC4)nc3OC)ncc2C(F)(F)F)c1 [ES-136] ; pIC50 observed: 6.76

A = C=CC(=O)Nc1cccc(Nc2nc(Nc3ccc(N4CCN(S(=O)(=O)CCC)CC4)nc3OC)ncc2C(F)(F)F)c1 [ES-144]
B = C=CC(=O)Nc1cccc(Nc2nc(Nc3ccc(N(C)C4CCN(C(=O)C5COC5)C4)nc3OC)ncc2C(F)(F)F)c1 (centres unmarked) [ES-149]
C = C=CC(=O)Nc1cccc(Nc2nc(Nc3ccc(N4CCN(C(=O)C(C)(C)C)CC4)nc3OC)ncc2C(F)(F)F)c1 [ES-139]
D = C=CC(=O)Nc1cccc(Nc2nc(Nc3ccc(N4CCN(S(=O)(=O)C(C)C)CC4)nc3OC)ncc2C(F)(F)F)c1 [ES-145]
## Task Put the entries in order of pIC50, starting with the largest number. Please list each label once, in the requested order.
## Result B, A, D, C

a = C=CC(=O)Nc1cccc(Nc2nc(Nc3cnc(N4CCN(C)CC4)cc3OC)ncc2C(F)(F)F)c1 [ES-075]
b = C=CC(=O)Nc1cccc(Nc2nc(Nc3ccc(N4CCN(C(=O)C(F)(F)F)CC4)nc3OC)ncc2C(F)(F)F)c1 [ES-135]
## Task When a and b are compared, which has the higher number for pIC50? Write the label of whichever entry you select.
## Result a
(a: 7.44, b: 6.96)

1 = C=CC(=O)Nc1cccc(Nc2nc(Nc3ccc(N4CCN(C(=O)C5CC5)CC4)nc3OC)ncc2C(F)(F)F)c1 [ES-130]
2 = C=CC(=O)Nc1cccc(Nc2nc(Nc3ccc(N4CCN(C(=O)N(C)C)CC4)nc3)ncc2C(F)(F)F)c1 [ES-158]
3 = C=CC(=O)Nc1cccc(Nc2nc(Nc3cnc(N4CCN(C(=O)OC(C)(C)C)CC4)nc3OC)ncc2C(F)(F)F)c1 [ES-159]
## Task Hi! Can you put these in order of pIC50, lowest number first? Please list each label once, in the requested order.
## Result 3, 2, 1
(3: 6.19, 2: 6.97, 1: 7.45)

P = C=CC(=O)Nc1cccc(Nc2nc(Nc3cnc(N4CCN(C(=O)N(C)C)CC4)nc3OC)ncc2C(F)(F)F)c1 [ES-164]
Q = C=CC(=O)Nc1cccc(Nc2nc(Nc3ccc(N(C)C4CCN(C(=O)N(C)C)C4)nc3OC)ncc2C(F)(F)F)c1 (centres unmarked) [ES-151]
R = C=CC(=O)Nc1cccc(Nc2nc(Nc3ccc(N(C)C4CCN(CCF)C4)nc3OC)ncc2C(F)(F)F)c1 (centres unmarked) [ES-148]
S = C=CC(=O)Nc1cccc(Nc2nc(Nc3ccc(N4CCN(C(=O)COC(C)=O)CC4)nc3OC)ncc2C(F)(F)F)c1 [ES-140]
## Task Put the entries in order of pIC50, starting with the largest number. Please list each label once, in the requested order.
## Result R, P, Q, S
(R: 7.50, P: 7.13, Q: 6.88, S: 6.57)

A = C=CC(=O)Nc1cccc(Nc2nc(Nc3ccc(N4CCN(C(C)=O)CC4)nc3)ncc2C(F)(F)F)c1 [ES-157]
B = C=CC(=O)Nc1cccc(Nc2nc(Nc3ccc(N4CCN(C(C)=O)CC4)cc3OC)ncc2C(F)(F)F)c1 [Compound 1686, reference compound]
C = C=CC(=O)Nc1cccc(Nc2nc(Nc3cnc(N4CCN(C(C)=O)CC4)cc3OC)ncc2C(F)(F)F)c1 [ES-074]
## Task Put the entries in order of pIC50, starting with the largest number. Please list each label once, in the requested order.
## Result B, A, C
(B: 7.28, A: 7.06, C: 6.75)

1 = C=CC(=O)Nc1cccc(Nc2nc(Nc3ccc(N4CCN(C(=O)OC(C)(C)C)CC4)nc3OC)ncc2C(F)(F)F)c1 [ES-070]
2 = C=CC(=O)Nc1cccc(Nc2nc(Nc3ccc(NC4CCN(CCF)C4)nc3OC)ncc2C(F)(F)F)c1 (centres unmarked) [ES-124]
## Task When 1 and 2 are compared, which has the higher number for pIC50? Write the label of whichever entry you select.
## Result 2
